Known Test H disease control rating of a selection of molecules
- Tested on: Septoria nodorum
- protocol_text: Test H: wheat glum blotch, preventive spray on wheat seedlings
- condition_set: 40 ppm (marked *); 100 = 100% disease control, 0 = no control
Marks after values point to notes of the source that are not given here.
measured_quantity: Test H disease control rating

molecule	experimental_system	result
Cc1ccn(-c2nc(Cl)c(-c3c(F)cccc3F)n(-c3ccc(F)c(F)c3)c2=O)n1	Septoria nodorum	94* %
Cc1cccc(-n2c(-c3c(F)cccc3F)c(Cl)nc(-n3cccn3)c2=O)c1C	Septoria nodorum	98* %
Cc1ccn(-c2nc(Cl)c(-c3c(F)cc(F)cc3F)n(-c3ccc(Cl)cc3)c2=O)n1	Septoria nodorum	100* %
Cc1ccn(-c2nc(Cl)c(-c3c(F)cccc3F)n(Cc3ccccc3)c2=O)n1	Septoria nodorum	98* %
Cc1ccn(-c2nc(Cl)c(-c3c(F)cccc3F)n(-c3ccccc3F)c2=O)n1	Septoria nodorum	99* %
O=c1c(-n2cccn2)nc(Cl)c(-c2c(F)cc(F)cc2F)n1-c1cccc(Br)c1	Septoria nodorum	99* %
Cc1ccn(-c2nc(Cl)c(-c3c(F)cc(F)cc3F)n(-c3ccccc3Cl)c2=O)n1	Septoria nodorum	100* %
CCC(C)Cn1c(-c2c(F)cc(F)cc2F)c(Cl)nc(C(=O)NOC)c1=O (centres unmarked)	Septoria nodorum	60* %
Cc1ccccc1-n1c(-c2c(F)cccc2F)c(Cl)nc(-n2cccn2)c1=O	Septoria nodorum	100* %
O=c1c(-n2cccn2)nc(Cl)c(-c2c(F)cccc2F)n1Cc1cccc(Cl)c1	Septoria nodorum	99* %
CCCCn1c(-c2ccc(F)cc2Cl)c(Br)nc(-n2cccn2)c1=O	Septoria nodorum	99* %
O=c1c(-n2cccn2)nc(Cl)c(-c2c(F)cccc2F)n1-c1ccc(F)cc1	Septoria nodorum	99* %
CC(C)Cn1c(-c2c(Cl)cc(Cl)cc2Cl)c(Cl)nc(-n2cccn2)c1=O	Septoria nodorum	97* %
Cc1ccn(-c2nc(Cl)c(-c3c(F)cc(F)cc3F)n(-c3cccc(F)c3F)c2=O)n1	Septoria nodorum	100* %
Cc1ccn(-c2nc(Cl)c(-c3c(F)cccc3F)n(Cc3ccccc3F)c2=O)n1	Septoria nodorum	96* %
NC(=O)c1nc(Cl)c(-c2c(F)ccc(F)c2F)n(-c2ccccc2)c1=O	Septoria nodorum	94* %
Cc1cccc(-n2c(-c3c(F)cccc3F)c(Cl)nc(-n3ccc(C)n3)c2=O)c1	Septoria nodorum	98* %

---

- System: Puccinia recondita f. sp. tritici
- protocol_text: Test K: wheat leaf rust, preventive spray on wheat seedlings
- condition_set: 40 ppm (*)
Marks after values point to notes of the source that are not given here.

compound	experimental_system	Test K disease control rating
CSCC(C)n1c(-c2c(F)cccc2F)c(Cl)nc(-n2cccn2)c1=O (stereo not drawn)	Puccinia recondita f. sp. tritici	0* %
Cn1c(-c2c(F)cccc2F)c(Cl)nc(-n2cccn2)c1=O	Puccinia recondita f. sp. tritici	0* %
CC(C)Cn1c(-c2cccc(Br)c2)c(Cl)nc(-n2cncn2)c1=O	Puccinia recondita f. sp. tritici	0* %
CC(C)Cn1c(-c2cc(Cl)cc(Cl)c2)c(Cl)nc(-n2cncn2)c1=O	Puccinia recondita f. sp. tritici	0* %
CCCCn1c(-c2c(F)cc(F)cc2F)c(Cl)nc(-n2cccn2)c1=O	Puccinia recondita f. sp. tritici	100* %
Cc1cc(C)cc(-c2c(Cl)nc(-n3cncn3)c(=O)n2CC(C)C)c1	Puccinia recondita f. sp. tritici	0* %
CCCCn1c(-c2c(F)cccc2F)c(Cl)nc(-n2cccn2)c1=O	Puccinia recondita f. sp. tritici	97* %
CC(C)Cn1c(-c2ccccc2F)c(Cl)nc(-n2cccn2)c1=O	Puccinia recondita f. sp. tritici	99* %
COC(=O)c1ccc(-c2c(Cl)nc(-n3cncn3)c(=O)n2CC(C)C)cc1	Puccinia recondita f. sp. tritici	0* %
CC(C)Cn1c(-c2cccc(C(F)(F)F)c2)c(Cl)nc(-n2cccn2)c1=O	Puccinia recondita f. sp. tritici	0* %
O=c1c(-n2cncn2)nc(Cl)c(-c2c(F)cccc2F)n1CCCl	Puccinia recondita f. sp. tritici	55* %
CC(C)Cn1c(-c2cc(F)cc(F)c2F)c(Cl)nc(-n2cccn2)c1=O	Puccinia recondita f. sp. tritici	99* %
CC(C)Cn1c(-c2ccc(Cl)o2)c(Cl)nc(-n2cccn2)c1=O	Puccinia recondita f. sp. tritici	19* %
COCCn1c(-c2c(F)cccc2F)c(Cl)nc(-n2cncn2)c1=O	Puccinia recondita f. sp. tritici	0* %
C#CCn1c(-c2c(F)cccc2F)c(Cl)nc(-n2cccn2)c1=O	Puccinia recondita f. sp. tritici	100* %
COC=C(C)n1c(-c2c(F)cccc2F)c(Cl)nc(-n2cccn2)c1=O	Puccinia recondita f. sp. tritici	27* %
CCC(C)Cn1c(-c2c(F)cccc2F)c(Cl)nc(-n2cnc(Cl)c2Cl)c1=O (stereo not drawn)	Puccinia recondita f. sp. tritici	0* %
CC(C)Cn1c(-c2ccc(Cl)o2)c(Cl)nc(-n2cncn2)c1=O	Puccinia recondita f. sp. tritici	0* %
